All values here come from paper PMC3922309.

- testedOn: HmuY (Porphyromonas gingivalis, UniProt A2BCY8, W161Y)
- Sequence (A2BCY8 26-216 W161Y): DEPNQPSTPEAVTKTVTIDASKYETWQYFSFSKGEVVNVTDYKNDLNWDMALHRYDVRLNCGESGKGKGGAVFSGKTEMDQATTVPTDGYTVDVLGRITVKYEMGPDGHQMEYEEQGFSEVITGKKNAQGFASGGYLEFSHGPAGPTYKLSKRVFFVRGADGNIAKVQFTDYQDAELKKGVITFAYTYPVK
- assayText: biochemical
measuredQuantity: Kd (µM)
Report only the number, with the unit µM understood.

Task: Lab note: need Kd with HmuY (Porphyromonas gingivalis, UniProt A2BCY8, W161Y) for entry `C=CC1=C(C)C2=Cc3c(C=C)c(C)c4[n]3[Fe]([Cl])[n]3c(c(C)c(CCC(=O)O)c3=CC3=NC(=C4)C(C)=C3CCC(=O)O)=CC1=N2` , please look it up.
Result: 0.235

---

- testedOn: HmuY (Porphyromonas gingivalis, UniProt A2BCY8, W73A)
- Sequence (A2BCY8 26-216 W73A): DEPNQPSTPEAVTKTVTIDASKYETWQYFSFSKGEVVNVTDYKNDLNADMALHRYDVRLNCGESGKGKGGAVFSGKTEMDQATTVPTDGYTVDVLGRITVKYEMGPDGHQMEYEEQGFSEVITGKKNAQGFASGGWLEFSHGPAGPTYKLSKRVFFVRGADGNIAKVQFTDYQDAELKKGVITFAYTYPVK
- assayText: biochemical
measuredQuantity: Kd

Task: Quick check: Kd of C=CC1=C(C)C2=Cc3c(C=C)c(C)c4[n]3[Fe]([Cl])[n]3c(c(C)c(CCC(=O)O)c3=CC3=NC(=C4)C(C)=C3CCC(=O)O)=CC1=N2 [heme] ?
Result: 229 nM

---

- testedOn: HmuY (Porphyromonas gingivalis)
- Construct: polypeptide lacking the first 25 residues, plasmid pHmuY11, expressed in Escherichia coli ER2566, purified from soluble lysate
- assayText: heme titration of apoprotein (UV-visible / Trp fluorescence quenching), one-site model
measuredQuantity: pKd
Please note pKd is a logarithmic value: minus log10 of concentration in mol/L. Answer with that number alone.

Task: Return reported pKd; argument: `C=CC1=C(C)C2=Cc3c(C=C)c(C)c4[n]3[Fe]([Cl])[n]3c(c(C)c(CCC(=O)O)c3=CC3=NC(=C4)C(C)=C3CCC(=O)O)=CC1=N2`
Result: 6.53

---

- testedOn: HmuY (Porphyromonas gingivalis, UniProt A2BCY8, W73Y)
- Sequence (A2BCY8 26-216 W73Y): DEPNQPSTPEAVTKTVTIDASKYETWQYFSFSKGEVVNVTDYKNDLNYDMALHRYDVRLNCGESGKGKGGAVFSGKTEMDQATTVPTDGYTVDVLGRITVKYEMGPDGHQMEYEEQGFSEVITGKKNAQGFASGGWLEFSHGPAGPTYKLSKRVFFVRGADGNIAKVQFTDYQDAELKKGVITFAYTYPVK
- assayText: biochemical
measuredQuantity: pKd
Field pKd (float): negative decimal logarithm of the concentration in molar.

Task: Requested read-out: pKd. Entry: C=CC1=C(C)C2=Cc3c(C=C)c(C)c4[n]3[Fe]([Cl])[n]3c(c(C)c(CCC(=O)O)c3=CC3=NC(=C4)C(C)=C3CCC(=O)O)=CC1=N2 [heme]
Result: 6.62

---

- testedOn: HmuY (Porphyromonas gingivalis, UniProt A2BCY8, W51Y)
- Sequence (A2BCY8 26-216 W51Y): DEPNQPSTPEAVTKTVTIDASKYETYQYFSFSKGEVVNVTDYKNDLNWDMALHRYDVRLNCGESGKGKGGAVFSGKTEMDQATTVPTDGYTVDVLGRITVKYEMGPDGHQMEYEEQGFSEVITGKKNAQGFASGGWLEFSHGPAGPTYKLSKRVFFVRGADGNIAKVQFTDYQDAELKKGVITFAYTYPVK
- assayText: biochemical
measuredQuantity: pKd
When answering, recall that pKd equals minus log10 of the concentration in mol/L, and write that number alone.

Task: Which pKd is reported for this compound? `C=CC1=C(C)C2=Cc3c(C=C)c(C)c4[n]3[Fe]([Cl])[n]3c(c(C)c(CCC(=O)O)c3=CC3=NC(=C4)C(C)=C3CCC(=O)O)=CC1=N2`
Result: 6.67
